study-system: CDK4 (Homo sapiens)
Construct: endogenous in cells; host or cells: Calu-1
test-details: CDK4 percentage degradation in Calu-1 cells (immunoblotting)
Type: cell-based
test-settings: Calu-1 cells, 10 μM, 16 hours; read-out: CDK4 Degradation (10 μM)
reported-property: inhibition at 10 µM

Solved entries:
molecule	reported-property	val
Cc1nc(NC(=O)c2ccccc2NC(=O)CCCCNC(=O)CN2CCN(c3ccc(Nc4ncc5cc(C(=O)N(C)C)n(C6CCCC6)c5n4)nc3)CC2)sc1C [CPD-289]	inhibition at 10 µM	30 to 50%
Cc1nc(NC(=O)c2ccccc2NC(=O)CCOCCNC(=O)CN2CCN(c3ccc(Nc4ncc(F)c(-c5cc(F)c6nc(C)n(C(C)C)c6c5)n4)nc3)CC2)sc1C [CPD-308]	inhibition at 10 µM	< 30%
Cc1nc(NC(=O)c2ccccc2NC(=O)CCCNC(=O)CN2CCN(c3ccc(Nc4ncc5cc(C(=O)N(C)C)n(C6CCCC6)c5n4)nc3)CC2)sc1C [CPD-288]	inhibition at 10 µM	50 to 80%

Short answer for Cc1nc(NC(=O)c2ccccc2NC(=O)CCCCCCCNC(=O)CN2CCN(Cc3ccc(Nc4ncc(F)c(-c5cc(F)c6nc(C)n(C(C)C)c6c5)n4)nc3)CC2)sc1C [CPD-278] : inhibition at 10 µM was < 30%

Short answer for Cc1nc(NC(=O)c2ccccc2NC(=O)CCOCCOCCNC(=O)CN2CCN(Cc3ccc(Nc4ncc(F)c(-c5cc(F)c6nc(C)n(C(C)C)c6c5)n4)nc3)CC2)sc1C [CPD-281] : inhibition at 10 µM was < 30%

Short answer for Cc1nc(NC(=O)c2ccccc2NC(=O)CCCCCCCNC(=O)CN2CCN(c3ccc(Nc4ncc5cc6n(c5n4)C4(CCCCC4)CNC6=O)nc3)CC2)sc1C [CPD-320] : inhibition at 10 µM was 50 to 80%

Short answer for Cc1nc(NC(=O)c2ccccc2NC(=O)CCOCCNC(=O)CN2CCN(c3ccc(Nc4ncc5cc6n(c5n4)C4(CCCCC4)CNC6=O)nc3)CC2)sc1C [CPD-322] : inhibition at 10 µM was 50 to 80%

----------
study-system: CDK4 (Homo sapiens)
Construct: endogenous in cells; host or cells: Calu-1
test-details: CDK4 percentage degradation in Calu-1 cells (immunoblotting)
Type: cell-based
test-settings: Calu-1 cells, 200 nM, 16 hours; read-out: CDK4 Degradation (200 nM)
Listed below: inhibition at 0.2 µM values for each entry.

Solved entries:
compound	study-system	reported-property	val
CC(=O)c1c(C)c2cnc(Nc3ccc(N4CCN(CC(=O)NCCOCCOCCOCCOCCOCCNC(=O)COc5ccc(C(=O)Nc6ncc(C)s6)c(C)c5)CC4)cn3)nc2n(C2CCCC2)c1=O [CPD-019]	CDK4 (Homo sapiens)	inhibition at 0.2 µM	< 30%
CC(=O)c1c(C)c2cnc(Nc3ccc(N4CCN(CC(=O)NCCOCCOCCC(=O)Nc5ccccc5C(=O)Nc5nc(C6CC6)c(C)s5)CC4)cn3)nc2n(C2CCCC2)c1=O [CPD-057]	CDK4 (Homo sapiens)	inhibition at 0.2 µM	50 to 80%

Short answer for CC(=O)c1c(C)c2cnc(Nc3ccc(N4CCN(CC(=O)NCCOCCOCCC(=O)Nc5c(C(=O)Nc6ccc(C)cn6)ccc6[nH]ccc56)CC4)cn3)nc2n(C2CCCC2)c1=O [CPD-361] : inhibition at 0.2 µM was 50 to 80%

----------
Listed below: inhibition at 0.2 µM values for each entry.
study-system: CDK4 (Homo sapiens, UniProt P11802)
Construct: endogenous in cells; host or cells: Calu-1
Sequence (P11802 2-303 limits assumed): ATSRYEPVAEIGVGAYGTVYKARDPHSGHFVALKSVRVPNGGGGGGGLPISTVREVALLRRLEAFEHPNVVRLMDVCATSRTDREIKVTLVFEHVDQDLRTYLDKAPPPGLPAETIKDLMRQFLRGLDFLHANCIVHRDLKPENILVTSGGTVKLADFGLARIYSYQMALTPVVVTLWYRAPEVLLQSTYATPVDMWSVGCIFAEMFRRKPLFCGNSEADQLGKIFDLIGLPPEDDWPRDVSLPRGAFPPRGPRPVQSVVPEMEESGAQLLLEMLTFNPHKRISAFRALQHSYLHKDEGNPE
Sequence (P24385 whole entry partner): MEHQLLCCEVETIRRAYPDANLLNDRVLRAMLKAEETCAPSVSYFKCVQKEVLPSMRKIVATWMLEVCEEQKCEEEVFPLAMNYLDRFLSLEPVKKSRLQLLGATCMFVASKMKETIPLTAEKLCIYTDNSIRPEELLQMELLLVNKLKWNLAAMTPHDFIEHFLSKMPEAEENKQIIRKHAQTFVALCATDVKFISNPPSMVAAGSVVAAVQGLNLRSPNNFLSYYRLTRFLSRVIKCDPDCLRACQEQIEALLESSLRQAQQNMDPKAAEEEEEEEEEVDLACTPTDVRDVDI
Sequence (Q16531 2-1140 limits assumed, further chain): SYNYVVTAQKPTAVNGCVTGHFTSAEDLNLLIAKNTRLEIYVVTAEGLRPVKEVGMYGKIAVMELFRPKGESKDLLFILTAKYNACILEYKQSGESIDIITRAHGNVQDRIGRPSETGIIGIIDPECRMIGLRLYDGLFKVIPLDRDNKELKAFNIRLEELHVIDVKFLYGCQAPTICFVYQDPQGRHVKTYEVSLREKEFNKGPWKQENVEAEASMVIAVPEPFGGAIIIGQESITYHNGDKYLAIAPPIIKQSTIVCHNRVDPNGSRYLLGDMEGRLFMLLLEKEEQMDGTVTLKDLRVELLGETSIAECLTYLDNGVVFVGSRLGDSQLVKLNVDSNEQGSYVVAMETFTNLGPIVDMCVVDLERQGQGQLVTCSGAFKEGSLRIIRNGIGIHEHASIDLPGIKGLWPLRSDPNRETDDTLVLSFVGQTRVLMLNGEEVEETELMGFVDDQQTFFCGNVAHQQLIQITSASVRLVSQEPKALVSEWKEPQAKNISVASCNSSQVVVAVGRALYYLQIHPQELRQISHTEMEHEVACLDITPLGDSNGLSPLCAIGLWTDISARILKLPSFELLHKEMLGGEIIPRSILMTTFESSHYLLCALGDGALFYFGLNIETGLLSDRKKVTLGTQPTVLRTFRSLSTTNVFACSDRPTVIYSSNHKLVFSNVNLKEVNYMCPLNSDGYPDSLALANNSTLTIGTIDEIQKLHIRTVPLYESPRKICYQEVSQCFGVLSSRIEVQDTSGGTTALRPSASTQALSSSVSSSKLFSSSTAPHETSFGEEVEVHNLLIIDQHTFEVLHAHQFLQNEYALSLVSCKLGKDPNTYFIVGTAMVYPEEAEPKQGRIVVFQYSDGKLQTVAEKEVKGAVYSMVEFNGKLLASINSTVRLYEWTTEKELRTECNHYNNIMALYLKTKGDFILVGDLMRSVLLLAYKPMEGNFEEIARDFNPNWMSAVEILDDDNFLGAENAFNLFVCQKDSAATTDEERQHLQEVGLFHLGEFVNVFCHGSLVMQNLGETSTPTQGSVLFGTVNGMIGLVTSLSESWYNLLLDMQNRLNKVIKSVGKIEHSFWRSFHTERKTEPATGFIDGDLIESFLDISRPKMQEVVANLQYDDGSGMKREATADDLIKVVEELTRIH
test-details: CDK4 percentage degradation in Calu-1 cells (immunoblotting)
Assay type: cell-based
test-settings: Calu-1 cells, 200 nM, 16 hours; read-out: CDK4 Degradation (200 nM)

Solved entries:
compound	inhibition at 0.2 µM
CC(=O)c1c(C)c2cnc(Nc3ccc(N4CCN(CC(=O)NCCOCCOCCNC(=O)CNc5ccc(C(=O)Nc6ncc(C)s6)c(C)c5)CC4)cn3)nc2n(C2CCCC2)c1=O [CPD-017]	< 30%
CCCCNc1ccc(NC(=O)CCOCCOCCNC(=O)CN2CCN(c3ccc(Nc4ncc5c(C)c(C(C)=O)c(=O)n(C6CCCC6)c5n4)nc3)CC2)c(C(=O)Nc2nc(C)c(C)s2)c1 [CPD-148]	< 30%
CC(=O)c1c(C)c2cnc(Nc3ccc(N4CCN(CC(=O)NCCOCCOCCC(=O)Nc5ccccc5C(=O)Nc5nc(C6CC6)ns5)CC4)cn3)nc2n(C2CCCC2)c1=O [CPD-059]	< 30%

Short answer for CC(=O)c1c(C)c2cnc(Nc3ccc(N4CCN(CC(=O)NCCOCCOCCNC(=O)COc5ccc(C(=O)Nc6ncc(C)s6)c(C)c5)CC4)cn3)nc2n(C2CCCC2)c1=O [CPD-039] : inhibition at 0.2 µM was < 30%

----------
study-system: CDK4 (Homo sapiens)
Construct: endogenous in cells; host or cells: Calu-1
test-details: CDK4 percentage degradation in Calu-1 cells (immunoblotting)
Assay type: cell-based
test-settings: Calu-1 cells, 200 nM, 16 hours; read-out: CDK4 Degradation (200 nM)
reported-property: inhibition at 0.2 µM

Solved entries:
smiles-structure	inhibition at 0.2 µM
CC(=O)c1c(C)c2cnc(Nc3ccc(N4CCN(CC(=O)NCCOCCOCCC(=O)Nc5cccc(Cl)c5C(=O)Nc5ccc(C)cn5)CC4)cn3)nc2n(C2CCCC2)c1=O	< 30%
CC(=O)c1c(C)c2cnc(Nc3ccc(N4CCN(CC(=O)NCCOCCOCCC(=O)Nc5ccccc5C(=O)Nc5ncc(C)o5)CC4)cn3)nc2n(C2CCCC2)c1=O	< 30%
CC(=O)c1c(C)c2cnc(Nc3ccc(N4CCN(CC(=O)NCCCCCNc5cc(C)ccc5C(=O)Nc5ccc(N(C)C)nn5)CC4)cn3)nc2n(C2CCCC2)c1=O	50 to 80%
CC(=O)c1c(C)c2cnc(Nc3ccc(N4CCN(CC(=O)NCCOCCOCCC(=O)Nc5ccccc5C(=O)Nc5ccc(N(C)C)nn5)CC4)cn3)nc2n(C2CCCC2)c1=O	> 80%
CC(=O)c1c(C)c2cnc(Nc3ccc(N4CCN(CC(=O)NCCOCCOCCC(=O)Nc5ccccc5C(=O)Nc5cc(C)[nH]n5)CC4)cn3)nc2n(C2CCCC2)c1=O	50 to 80%

Now take the following molecule into account.
Short answer for CC(=O)c1c(C)c2cnc(Nc3ccc(N4CCN(CC(=O)NCCOCCOCCOCCNC(=O)COc5ccc(C(=O)Nc6ncc(C)s6)c(C)c5)CC4)cn3)nc2n(C2CCCC2)c1=O : inhibition at 0.2 µM was < 30%

----------
study-system: CDK4 (Homo sapiens)
Construct: endogenous in cells; host or cells: Calu-1
test-details: CDK4 percentage degradation in Calu-1 cells (immunoblotting)
Assay type: cell-based
test-settings: Calu-1 cells, 10 μM, 16 hours; read-out: CDK4 Degradation (10 μM)
Listed below: inhibition at 10 µM values for each entry.

Solved entries:
compound	val
Cc1nc(NC(=O)c2ccccc2NC(=O)CNC(=O)CN2CCN(c3ccc(Nc4ncc5cc6n(c5n4)C4(CCCCC4)CNC6=O)nc3)CC2)sc1C [CPD-314]	< 30%
Cc1nc(NC(=O)c2ccccc2NC(=O)CCCNC(=O)CN2CCN(c3ccc(Nc4ncc5cc6n(c5n4)C4(CCCCC4)CNC6=O)nc3)CC2)sc1C [CPD-316]	< 30%
Cc1nc(NC(=O)c2ccccc2NC(=O)CCNC(=O)CN2CCN(c3ccc(Nc4ncc5cc(C(=O)N(C)C)n(C6CCCC6)c5n4)nc3)CC2)sc1C [CPD-287]	30 to 50%
Cc1nc(NC(=O)c2ccccc2NC(=O)CCNC(=O)CN2CCN(c3ccc(Nc4ncc(F)c(-c5cc(F)c6nc(C)n(C(C)C)c6c5)n4)nc3)CC2)sc1C [CPD-301]	< 30%
Cc1nc(NC(=O)c2ccccc2NC(=O)CCOCCOCCOCCOCCOCCNC(=O)CN2CCN(c3ccc(Nc4ncc5cc6n(c5n4)C4(CCCCC4)CNC6=O)nc3)CC2)sc1C [CPD-326]	50 to 80%

Now take the following compound into account.
Short answer for Cc1nc(NC(=O)c2ccccc2NC(=O)CCCCCCNC(=O)CN2CCN(c3ccc(Nc4ncc5cc(C(=O)N(C)C)n(C6CCCC6)c5n4)nc3)CC2)sc1C [CPD-291] : inhibition at 10 µM was 30 to 50%

----------
study-system: CDK4 (Homo sapiens)
Construct: endogenous in cells; host or cells: Calu-1
test-details: CDK4 percentage degradation in Calu-1 cells (immunoblotting)
Type: cell-based
test-settings: Calu-1 cells, 200 nM, 16 hours; read-out: CDK4 Degradation (200 nM)
reported-property: inhibition at 0.2 µM

Solved entries:
compound	val
CC(=O)c1c(C)c2cnc(Nc3ccc(N4CCN(CC(=O)NCCNc5cccc(C(=O)Nc6nc(C)c(C)s6)c5C)CC4)cn3)nc2n(C2CCCC2)c1=O	< 30%
CC(=O)c1c(C)c2cnc(Nc3ccc(N4CCN(CC(=O)NCCOCCOCCOCCC(=O)Nc5ccccc5C(=O)Nc5nc(C)c(C)s5)CC4)cn3)nc2n(C2CCCC2)c1=O	> 80%
CC(=O)c1c(C)c2cnc(Nc3ccc(N4CCN(CC(=O)NCCOCCOCCOCCOCCOCCNc5ccc(C(=O)Nc6cc(C)n(C)n6)c(C)c5)CC4)cn3)nc2n(C2CCCC2)c1=O	> 80%
CNc1ccc(C(=O)Nc2nc(C)c(C)s2)c(NCCCCCCCNC(=O)CN2CCN(c3ccc(Nc4ncc5c(C)c(C(C)=O)c(=O)n(C6CCCC6)c5n4)nc3)CC2)c1	> 80%
CC(=O)c1c(C)c2cnc(Nc3ccc(N4CCN(CC(=O)NCCOCCOCCOCCOCCOCCNc5ccc(C(=O)Nc6nccs6)c(C)c5)CC4)cn3)nc2n(C2CCCC2)c1=O	30 to 50%
CC(=O)c1c(C)c2cnc(Nc3ccc(N4CCN(CC(=O)NCCOCCOCCOCCOCCOCCNc5ccc(C(=O)Nc6nc(C(C)C)c(C)s6)c(C)c5)CC4)cn3)nc2n(C2CCCC2)c1=O	> 80%

Short answer for CC(=O)c1c(C)c2cnc(Nc3ccc(N4CCN(CC(=O)NC(C)CCCCNc5cc(Cl)ccc5C(=O)Nc5ccc(C)c(C6CC6)n5)CC4)cn3)nc2n(C2CCCC2)c1=O (centres unmarked) : inhibition at 0.2 µM was 50 to 80%

Short answer for CC(=O)c1c(C)c2cnc(Nc3ccc(N4CCN(CC(=O)NCCOCCOCCOCCOCCOCCNc5ccc(C(=O)Nc6ncc(-c7ccccc7)s6)c(C)c5)CC4)cn3)nc2n(C2CCCC2)c1=O : inhibition at 0.2 µM was < 30%

Short answer for CC(=O)c1c(C)c2cnc(Nc3ccc(N4CCN(CC(=O)NCCOCCOCCC(=O)NC5CCCCC5C(=O)Nc5nc(C)c(C)s5)CC4)cn3)nc2n(C2CCCC2)c1=O (centres unmarked) : inhibition at 0.2 µM was < 30%
